Data origin, for the record: patent US10590129B2

I'd be grateful if you could share measured inhibition at 1 µM for these entries.
- Tested on: MKN-45 cells
- protocol text: Inhibition of MKN-45 proliferation (MTT)
- Assay type: cell-based, human
- measurement setup: Homo sapiens, MKN-45, MKN-45 proliferation, 1 μM
- Experimental: Inhibition of MKN-45 Proliferation: Cell proliferation assays were carried out using the high Met expressing human gastric adenocarcinoma cell line, MKN-45, according to the following schedule: Day 1: Cells were plated in 96-well plates in complete growth medium. Day 2: Compounds at desired concentrations were added. Day 5: Cell viability was determined using the 3-[4,5-dimethylthiazol-2-yl]-2,5-diphenyltetrazolium bromide (MTT) dye reduction test.
Structures can show the parent of a compound that is named as a salt.

Below, each entry is followed by its recorded inhibition at 1 µM result.
{"columns": ["compound", "study system", "inhibition at 1 µM"],
 "data": [
  ["CC(C)COc1ccc(-c2ccc3nnn(Cc4ccc5ncccc5c4)c3n2)cc1F [Ex 80]", "MKN-45 cells", "25 to 50%"],
  ["Cl.O=C(NC1CC1)c1ccc(-c2ccc3nnn(Cc4ccc5ncccc5c4)c3n2)cc1F [Ex 89, hydrochloride]", "MKN-45 cells", "< 25%"],
  ["CCc1n[nH]c2cc(-c3ccc4nnn(Cc5ccc6ncccc6c5)c4n3)ccc12 [Ex 191]", "MKN-45 cells", "25 to 50%"],
  ["CN(C)C(=O)CCNC(=O)c1ccc(-c2ccc3nnn(Cc4ccc5ncccc5c4)c3n2)cc1F [Ex 76]", "MKN-45 cells", "50 to 75%"],
  ["NC(=O)c1cccc(-c2ccc3nnn(Cc4ccc5ncccc5c4)c3n2)c1 [Ex 138]", "MKN-45 cells", "75 to 100%"],
  ["c1cnc2ccc(Cn3cnc4ccc(-c5cn[nH]c5)nc43)cc2c1 [Ex 147]", "MKN-45 cells", "< 25%"],
  ["FC(F)(F)COc1cccc(-c2ccc3nnn(Cc4ccc5ncccc5c4)c3n2)c1 [Ex 70]", "MKN-45 cells", "< 25%"],
  ["O=C(O)CCNc1ccc(-c2ccc3nnn(Cc4ccc5ncccc5c4)c3n2)cc1F [Ex 58]", "MKN-45 cells", "< 25%"],
  ["O=C(NC1CC1)c1ccc(-c2ccc3nnn(Cc4ccc5c(ccc[n+]5[O-])c4)c3n2)cc1F [Ex 88]", "MKN-45 cells", "< 25%"],
  ["Nc1ccc(-c2ccc3nnn(Cc4ccc5ncccc5c4)c3n2)cc1 [Ex 64]", "MKN-45 cells", "25 to 50%"]
]}

Need inhibition at 1 µM for each of these compounds.
1. COCCNC(=O)c1ccc(-c2ccc3nnn(Cc4ccc5ncccc5c4)c3n2)cc1F [Ex 94]
2. O=C(NCC(=O)N1CCCC1)c1ccc(-c2ccc3nnn(Cc4ccc5ncccc5c4)c3n2)cc1F [Ex 78]
3. OCCNc1ccc2nnn(Cc3ccc4ncccc4c3)c2n1 [Ex 151]
4. CCNC(=O)c1ccc(-c2ccc3nnn(Cc4ccc5ncccc5c4)c3n2)cc1F [Ex 73, hydrochloride]
5. CC(C)NC(=O)c1ccc(-c2ccc3nnn(Cc4ccc5ncccc5c4)c3n2)cc1 [Ex 116]

Result ::
1: < 25%; 2: 50 to 75%; 3: 50 to 75%; 4: 50 to 75%; 5: 75 to 100%

---

- Tested on: MKN-45 cells
- protocol text: Inhibition of MKN-45 proliferation (MTT)
- Assay type: cell-based, human
- measurement setup: Homo sapiens, MKN-45, MKN-45 proliferation
Counter-ions that a name gives are not always drawn.
Provide the recorded GI50 for the entries that follow.

Look over these answered cases.
{"columns": ["compound", "GI50"],
 "data": [
  ["Clc1cc(-c2ccc3nnn(Cc4ccc5ncccc5c4)c3n2)ccn1", "0.15 to 0.5 µM"],
  ["COc1cccc(-c2ccc3nnn(Cc4ccc5ncccc5c4)c3n2)c1", "> 1 µM"],
  ["O=C(NC1CCNCC1)c1ccc(-c2ccc3nnn(Cc4ccc5ncccc5c4)c3n2)cc1 [Ex 30, hydrochloride]", "0.15 to 0.5 µM"]
]}

List reported GI50 for each of these compounds:
1. CN(C)CCCNC(=O)c1ccc(-c2ccc3nnn(Cc4ccc5ncccc5c4)c3n2)cc1
2. CNC(=O)c1cccc(-c2ccc3nnn(Cc4ccc5ncccc5c4)c3n2)c1
3. CCNC(=O)c1ccc(-c2ccc3nnn(Cc4cc5cccnc5cc4F)c3n2)cc1Cl
4. O=C(c1ccc(-c2ccc3nnn(Cc4ccc5ncccc5c4)c3n2)cc1)N1CCC(N2CCCC2)CC1
5. O=C(c1ccc(-c2ccc3nnn(Cc4ccc5ncccc5c4)c3n2)cc1)N1CC[C@@H](O)C1 [Ex 34, hydrochloride]

Result ::
1: 0.05 to 0.15 µM; 2: 0.05 to 0.15 µM; 3: ≤ 0.05 µM; 4: < 1 µM; 5: < 1 µM

---

- Test system: MKN-45 cells
- protocol text: Inhibition of MKN-45 proliferation (MTT)
- Format: cell-based, human
- measurement setup: Homo sapiens, MKN-45, MKN-45 proliferation
Structures can show the parent of a compound that is named as a salt.
recorded metric: GI50

Sample answers from the record:
{"columns": ["compound", "study system", "GI50"],
 "data": [
  ["Cn1cc(-c2ccc3nnn(Cc4ccc5ncccc5c4)c3n2)cn1", "MKN-45 cells", "50 to 150 nM"],
  ["COCCN(CCOC)C(=O)c1ccc(-c2ccc3nnn(Cc4ccc5ncccc5c4)c3n2)cc1 [Ex 40, hydrochloride]", "MKN-45 cells", "< 1000 nM"],
  ["O=C(NC1CCOCC1)c1ccc(-c2ccc3nnn(Cc4ccc5ncccc5c4)c3n2)cc1", "MKN-45 cells", "150 to 500 nM"]
]}

Fill in GI50 for each of the 2 compounds listed.
1. O=C(c1ccc(-c2ccc3nnn(Cc4ccc5ncccc5c4)c3n2)cc1)N1CCC[C@H]1CN1CCCC1 [Ex 32, hydrochloride]
2. NC(=O)c1ccc(-c2ccc3nnn(Cc4c(F)cc5ncccc5c4F)c3n2)cc1Cl

Result ::
1. < 1000 nM
2. ≤ 50 nM

// each compound listed below needs its GI50
1. O=C(NC1CCCCC1)c1ccc(-c2ccc3nnn(Cc4ccc5ncccc5c4)c3n2)cc1F
2. O=C(O)c1ccc(-c2ccc3nnn(Cc4ccc5ncccc5c4)c3n2)cc1

Result ::
50 to 150 nM
> 1000 nM

Provide the reported GI50 of each entry below, same order.
1. NC(=O)c1ccc(-c2ccc3nnn(Cc4cc5cccnc5cc4F)c3n2)cc1Cl
2. c1cnc2ccc(Cn3nnc4ccc(-c5cnn(C6CCOCC6)c5)nc43)cc2c1

Result ::
1: ≤ 50 nM; 2: < 1000 nM

---

- study system: Met kinase (Homo sapiens)
- Sequence (P08581 25-1390): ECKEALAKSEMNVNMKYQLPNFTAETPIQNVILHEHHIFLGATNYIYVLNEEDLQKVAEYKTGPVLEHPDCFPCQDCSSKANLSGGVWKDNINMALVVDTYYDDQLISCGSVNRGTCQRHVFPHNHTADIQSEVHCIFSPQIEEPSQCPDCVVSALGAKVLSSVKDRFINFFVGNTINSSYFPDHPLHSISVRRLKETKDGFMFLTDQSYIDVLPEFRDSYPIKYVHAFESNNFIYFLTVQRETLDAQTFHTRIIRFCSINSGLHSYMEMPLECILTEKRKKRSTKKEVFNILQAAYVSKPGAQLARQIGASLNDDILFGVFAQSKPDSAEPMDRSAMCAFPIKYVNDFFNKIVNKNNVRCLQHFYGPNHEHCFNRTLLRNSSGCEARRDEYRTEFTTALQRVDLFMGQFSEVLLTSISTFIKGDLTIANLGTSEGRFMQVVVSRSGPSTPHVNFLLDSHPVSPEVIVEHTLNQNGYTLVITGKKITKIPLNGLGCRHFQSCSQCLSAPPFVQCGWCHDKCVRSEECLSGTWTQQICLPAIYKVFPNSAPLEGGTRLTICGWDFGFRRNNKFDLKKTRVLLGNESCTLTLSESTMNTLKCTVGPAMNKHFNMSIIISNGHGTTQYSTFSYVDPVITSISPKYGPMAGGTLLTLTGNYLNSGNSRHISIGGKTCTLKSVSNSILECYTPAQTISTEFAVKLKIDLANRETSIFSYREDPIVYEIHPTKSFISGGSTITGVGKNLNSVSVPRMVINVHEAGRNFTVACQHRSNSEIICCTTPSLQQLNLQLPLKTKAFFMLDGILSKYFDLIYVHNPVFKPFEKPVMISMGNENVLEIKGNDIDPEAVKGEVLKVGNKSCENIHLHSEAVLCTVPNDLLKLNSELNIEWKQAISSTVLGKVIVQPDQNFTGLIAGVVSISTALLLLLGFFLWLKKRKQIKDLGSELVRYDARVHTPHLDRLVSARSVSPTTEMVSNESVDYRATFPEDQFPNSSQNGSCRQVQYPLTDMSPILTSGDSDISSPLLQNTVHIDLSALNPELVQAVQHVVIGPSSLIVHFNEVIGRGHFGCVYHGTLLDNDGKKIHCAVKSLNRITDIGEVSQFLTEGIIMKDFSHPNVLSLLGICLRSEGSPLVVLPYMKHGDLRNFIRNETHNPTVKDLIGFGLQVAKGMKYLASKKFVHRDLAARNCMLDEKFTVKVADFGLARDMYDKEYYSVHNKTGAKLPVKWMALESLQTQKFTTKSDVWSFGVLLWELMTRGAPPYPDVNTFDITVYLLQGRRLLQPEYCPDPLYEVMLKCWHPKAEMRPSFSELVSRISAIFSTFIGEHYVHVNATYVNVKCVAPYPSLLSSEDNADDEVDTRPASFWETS
- protocol text: Inhibition of HGF-induced Met phosphorylation in MDA-MB-231 cells
- Type: cell-based
- Set-up: endogenous in cells; host or cells: MDA-MB-231
- measurement setup: HGF 50 ng/ml, read-out: HGF stimulated Met phosphorylation (IC50)
recorded metric: IC50

{"columns": ["line notation", "experimental result"],
 "data": [
  ["NC(=O)c1c(F)cc(-c2ccc3nnn(Cc4ccc5ncccc5c4)c3n2)cc1F", "≤ 10 nM"],
  ["NC(=O)c1ccc(-c2ccc3nnn(Cc4ccc5ncccc5c4)c3n2)cc1F", "≤ 10 nM"],
  ["NC(=O)c1ccc(-c2ccc3nnn(Cc4cc5cccnc5cc4F)c3n2)cc1Cl", "10 to 50 nM"],
  ["CCNC(=O)c1ccc(-c2ccc3nnn(Cc4ccc5ncccc5c4)c3n2)cc1Cl", "≤ 10 nM"]
]}

Let us examine a further case.
Query :: Recall and state the measured IC50 for NC(=O)c1ccc(-c2ccc3nnn(Cc4ccc5ncccc5c4)c3n2)cc1Cl .
Result :: ≤ 10 nM

---

- System: Akt
- protocol text: Inhibition of Akt phosphorylation in MKN-45 cells (western blot, pAkt S473)
- Assay type: cell-based
- measurement setup: Homo sapiens
- Protocol: Inhibition of Akt Phosphorylation in MKN-45 or NCI-11441 Cells: Akt is a serine-threonine kinase and a downstream marker regulated by c-Met kinase via the PI3K pathway. […] Following separation, proteins were transferred onto a nitrocellulose membrane and detected by chemiluminescence after incubation with pAkt S473 mAb (primary) and rabbit anti-mouse Ab (secondary). Intensity of the bands was determined using ImageJ 1.42q (NIH, USA) and normalized to Actin (loading control).
recorded metric: IC50

{"columns": ["compound", "study system", "IC50"],
 "data": [
  ["NC(=O)c1ccc(-c2ccc3nnn(Cc4ccc5ncccc5c4)c3n2)cc1F [Ex 15]", "Akt", "100 to 200 nM"],
  ["O=C(Nc1nc[nH]n1)c1ccc(-c2ccc3nnn(Cc4ccc5ncccc5c4)c3n2)cc1F [Ex 52]", "Akt", "50 to 100 nM"],
  ["NC(=O)c1c(F)cc(-c2ccc3nnn(Cc4ccc5ncccc5c4)c3n2)cc1F [Ex 130]", "Akt", "50 to 100 nM"],
  ["CCNC(=O)c1ccc(-c2ccc3nnn(Cc4ccc5ncccc5c4)c3n2)cc1Cl [Ex 119]", "Akt", "≤ 25 nM"],
  ["NC(=O)c1ccc(-c2ccc3nnn(Cc4cc5cccnc5cc4F)c3n2)cc1Cl [Ex 134]", "Akt", "≤ 25 nM"]
]}

Now for a further compound.
Query :: Fill in IC50 for NC(=O)c1ccc(-c2ccc3nnn(Cc4ccc5ncccc5c4)c3n2)cc1Cl [Ex 108] tested with Akt.
Result :: ≤ 25 nM
